Test system: A549
Assay: MTT antiproliferation assay, A549
Format: cell-based
Settings: Homo sapiens, 48 h, n = 3, read-out: IC50 ± SD A549
endpoint: IC50 (µM)

Answered examples (2):
{"molecule": "NS(=O)(=O)c1ccc(N2N=C(c3ccccc3F)CC2c2ccc3c(c2)OCO3)cc1 (centres unmarked)", "IC50 (µM)": 5.86}
{"molecule": "Cc1ccc(C2=NN(c3ccc(S(N)(=O)=O)cc3)C(c3ccc4c(c3)OCO4)C2)c(C)c1 (centres unmarked)", "IC50 (µM)": 6.71}

a: CCOc1ccc(C2=NN(c3ccc(S(N)(=O)=O)cc3)C(c3ccc4c(c3)OCCO4)C2)cc1 (centres unmarked)
b: Cc1cccc(C2=NN(c3ccc(S(N)(=O)=O)cc3)C(c3ccc4c(c3)OCO4)C2)c1 (centres unmarked)
c: NS(=O)(=O)c1ccc(N2N=C(c3ccc(Br)cc3)CC2c2ccc3c(c2)OCCO3)cc1 (centres unmarked)
Please order the records by their reported IC50, lowest number first. Answer by listing the labels in the requested order.
c, b, a
(c: 3.14 µM, b: 4.54 µM, a: 6.81 µM)

###

System: HepG2
Experiment: MTT antiproliferation assay, HepG2
Type: cell-based
Conditions: Homo sapiens, 48 h, n = 3, read-out: IC50 ± SD HepG2
endpoint: IC50 (µM)

Worked set:
{"molecule": "CCOc1ccc(C2=NN(c3ccc(S(N)(=O)=O)cc3)C(c3ccc4c(c3)OCCO4)C2)cc1 (centres unmarked) [Compound 4n]", "study-system": "HepG2", "IC50 / µM": 13.5}
{"molecule": "NS(=O)(=O)c1ccc(N2N=C(c3ccccc3F)CC2c2ccc3c(c2)OCO3)cc1 (centres unmarked) [Compound 4j]", "study-system": "HepG2", "IC50 / µM": 11.8}
{"molecule": "NS(=O)(=O)c1ccc(N2N=C(c3cccc(F)c3)CC2c2ccc3c(c2)OCCO3)cc1 (centres unmarked) [Compound 4v]", "study-system": "HepG2", "IC50 / µM": 12.9}
{"molecule": "NS(=O)(=O)c1ccc(N2N=C(c3ccc(Br)cc3)CC2c2ccc3c(c2)OCCO3)cc1 (centres unmarked) [Compound 4q]", "study-system": "HepG2", "IC50 / µM": 6.92}
{"molecule": "Cc1ccc(C2=NN(c3ccc(S(N)(=O)=O)cc3)C(c3ccc4c(c3)OCO4)C2)cc1C (centres unmarked) [Compound 4f]", "study-system": "HepG2", "IC50 / µM": 11.2}
{"molecule": "NS(=O)(=O)c1ccc(N2N=C(c3ccc(F)cc3)CC2c2ccc3c(c2)OCCO3)cc1 (centres unmarked) [Compound 4o]", "study-system": "HepG2", "IC50 / µM": 9.24}

a: Cc1cccc(C2=NN(c3ccc(S(N)(=O)=O)cc3)C(c3ccc4c(c3)OCO4)C2)c1 (centres unmarked) [Compound 4e]
b: COc1cccc(C2=NN(c3ccc(S(N)(=O)=O)cc3)C(c3ccc4c(c3)OCO4)C2)c1 (centres unmarked) [Compound 4g]
Record comparison, field IC50: mark the lower of a and b . Mark your selection by writing its label.
a

###

Biological target: COX-2 (Homo sapiens, UniProt P35354)
Sequence (P35354 18-604): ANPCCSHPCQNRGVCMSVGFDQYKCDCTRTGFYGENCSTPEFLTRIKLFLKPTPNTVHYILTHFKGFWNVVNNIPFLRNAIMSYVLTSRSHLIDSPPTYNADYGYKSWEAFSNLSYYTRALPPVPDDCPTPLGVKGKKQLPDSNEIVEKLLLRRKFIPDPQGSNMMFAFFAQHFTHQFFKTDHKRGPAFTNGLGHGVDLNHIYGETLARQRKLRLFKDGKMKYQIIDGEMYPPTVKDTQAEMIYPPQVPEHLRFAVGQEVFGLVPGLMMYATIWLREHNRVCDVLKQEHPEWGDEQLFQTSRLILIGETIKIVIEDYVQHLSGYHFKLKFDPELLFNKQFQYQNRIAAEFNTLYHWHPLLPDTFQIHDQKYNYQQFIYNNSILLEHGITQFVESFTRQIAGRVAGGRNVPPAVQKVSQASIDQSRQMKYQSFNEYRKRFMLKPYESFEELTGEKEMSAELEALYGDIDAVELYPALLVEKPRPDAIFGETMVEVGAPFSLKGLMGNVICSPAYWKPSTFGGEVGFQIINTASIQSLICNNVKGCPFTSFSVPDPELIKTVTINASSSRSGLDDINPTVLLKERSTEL
endpoint: IC50 (nM)

{"compound": "Cc1ccc(C2=NN(c3ccc(S(N)(=O)=O)cc3)C(c3ccc4c(c3)OCCO4)C2)cc1C (centres unmarked) [Compound 4s]", "study-system": "COX-2 (Homo sapiens, UniProt P35354)", "unit-abbreviation": "nM", "result-value": 1800}
{"compound": "Cc1ccc(C2=NN(c3ccc(S(N)(=O)=O)cc3)C(c3ccc4c(c3)OCO4)C2)c(C)c1 (centres unmarked) [Compound 4i]", "study-system": "COX-2 (Homo sapiens, UniProt P35354)", "unit-abbreviation": "nM", "result-value": 1980}
{"compound": "Cc1ccc(C2=NN(c3ccc(S(N)(=O)=O)cc3)C(c3ccc4c(c3)OCO4)C2)cc1C (centres unmarked) [Compound 4f]", "study-system": "COX-2 (Homo sapiens, UniProt P35354)", "unit-abbreviation": "nM", "result-value": 1730}
{"compound": "COc1cccc(C2=NN(c3ccc(S(N)(=O)=O)cc3)C(c3ccc4c(c3)OCO4)C2)c1 (centres unmarked) [Compound 4g]", "study-system": "COX-2 (Homo sapiens, UniProt P35354)", "unit-abbreviation": "nM", "result-value": 3180}
{"compound": "Cc1ccc(C2=NN(c3ccc(S(N)(=O)=O)cc3)C(c3ccc4c(c3)OCO4)C2)cc1 (centres unmarked) [Compound 4b]", "study-system": "COX-2 (Homo sapiens, UniProt P35354)", "unit-abbreviation": "nM", "result-value": 350}
{"compound": "NS(=O)(=O)c1ccc(N2N=C(c3ccc(F)cc3)CC2c2ccc3c(c2)OCCO3)cc1 (centres unmarked) [Compound 4o]", "study-system": "COX-2 (Homo sapiens, UniProt P35354)", "unit-abbreviation": "nM", "result-value": 1530}

a: NS(=O)(=O)c1ccc(N2N=C(c3ccccc3F)CC2c2ccc3c(c2)OCCO3)cc1 (centres unmarked) [Compound 4y]
b: NS(=O)(=O)c1ccc(N2N=C(c3cccc(F)c3)CC2c2ccc3c(c2)OCO3)cc1 (centres unmarked) [Compound 4h]
Between a and b , whose measured IC50 reads higher? Returns: label corresponding to the selected item.
a

###

endpoint: melting point

{"molecule": "Cc1ccc(C2=NN(c3ccc(S(N)(=O)=O)cc3)C(c3ccc4c(c3)OCO4)C2)cc1 (centres unmarked)", "melting point": "200 to 201 °C"}

Specify melting point for NS(=O)(=O)c1ccc(N2N=C(c3ccccc3)CC2c2ccc3c(c2)OCO3)cc1 (centres unmarked) and stop.
212 to 214 °C

Return melting point (reported value) for this molecule: NS(=O)(=O)c1ccc(N2N=C(c3ccc(I)cc3)CC2c2ccc3c(c2)OCCO3)cc1 (centres unmarked)
187 to 189 °C

Please look at this molecule and report its melting point: NS(=O)(=O)c1ccc(N2N=C(c3ccc(Cl)cc3)CC2c2ccc3c(c2)OCCO3)cc1 (centres unmarked)
146 to 148 °C

Determine its reported melting point: NS(=O)(=O)c1ccc(N2N=C(c3ccc(F)cc3F)CC2c2ccc3c(c2)OCCO3)cc1 (centres unmarked)
168 to 169 °C

Given the molecule COc1ccc(C2=NN(c3ccc(S(N)(=O)=O)cc3)C(c3ccc4c(c3)OCCO4)C2)cc1 (centres unmarked) , write its reported melting point.
207 to 208 °C

Entry NS(=O)(=O)c1ccc(N2N=C(c3cccc(Cl)c3Cl)CC2c2ccc3c(c2)OCCO3)cc1 (centres unmarked) needs its melting point filled in; supply it.
171 to 173 °C

Determine from records and report melting point for Cc1ccc(C2=NN(c3ccc(S(N)(=O)=O)cc3)C(c3ccc4c(c3)OCO4)C2)c(C)c1 (centres unmarked)
180 to 182 °C

###

Tested on: A549
Experiment: MTT antiproliferation assay, A549
Format: cell-based
Conditions: Homo sapiens, 48 h, n = 3, read-out: IC50 ± SD A549
pIC50: −log10 of the molar value.
endpoint: pIC50

Some entries whose results are on file:
{"compound": "NS(=O)(=O)c1ccc(N2N=C(c3ccc(Cl)cc3)CC2c2ccc3c(c2)OCCO3)cc1 (stereo not shown)", "study-system": "A549", "result-value": 5.42}
{"compound": "NS(=O)(=O)c1ccc(N2N=C(c3ccc(F)cc3F)CC2c2ccc3c(c2)OCCO3)cc1 (stereo not shown)", "study-system": "A549", "result-value": 5.24}

1: NS(=O)(=O)c1ccc(N2N=C(c3ccc(F)cc3)CC2c2ccc3c(c2)OCCO3)cc1 (stereo not shown)
2: Cc1ccc(C2=NN(c3ccc(S(N)(=O)=O)cc3)C(c3ccc4c(c3)OCO4)C2)cc1 (stereo not shown)
Of 1 and 2 , which shows the smaller pIC50 value? Selection: enter the item's label.
1
